compounds and their reported % Enzyme Activity (relative to DMSO controls), Data 1
target: CK1d (Homo sapiens, UniProt P48730); construct: purchased ReactionBiology; experiment: Kinase activity test (ReactionBiology), % enzyme activity relative to DMSO; type: biochemical; conditions: CK1d; 1 uM; replicate Data 1
Sequence (P48730 whole entry): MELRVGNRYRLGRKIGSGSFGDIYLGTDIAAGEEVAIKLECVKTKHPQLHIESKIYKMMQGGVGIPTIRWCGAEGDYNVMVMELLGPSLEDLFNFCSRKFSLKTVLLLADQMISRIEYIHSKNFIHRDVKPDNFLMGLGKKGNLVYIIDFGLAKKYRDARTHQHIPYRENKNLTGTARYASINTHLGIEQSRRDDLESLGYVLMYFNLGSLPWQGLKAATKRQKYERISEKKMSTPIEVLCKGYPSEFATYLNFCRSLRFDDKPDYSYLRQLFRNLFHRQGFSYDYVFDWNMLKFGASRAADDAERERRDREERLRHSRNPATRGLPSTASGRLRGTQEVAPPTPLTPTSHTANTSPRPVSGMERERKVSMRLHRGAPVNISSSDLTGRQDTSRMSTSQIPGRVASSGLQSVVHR
# value in %; strip the unit string

Example compounds with recorded % Enzyme Activity (relative to DMSO controls), Data 1:
> print(dat)
                                   compound                         systemtested  unitannotation  measuredvalue
1  CC1=Nc2ccc(Cl)cc2S(=O)(=O)N1 [Diazoxide]  CK1d (Homo sapiens, UniProt P48730)               %          99.58
2  CN1CC(=O)N2[C@H](c3ccc4c(c3)OCO4)c3[nH]c4ccccc4c3C[C@@H]2C1=O  CK1d (Homo sapiens, UniProt P48730)               %         105.89
3  CCCc1nn(C)c2c(=O)[nH]c(-c3cc(S(=O)(=O)N4CCN(C)CC4)ccc3OCC)nc12  CK1d (Homo sapiens, UniProt P48730)               %         107.72

Prompt: Looking for the measured % Enzyme Activity (relative to DMSO controls), Data 1 of CCc1nc(N)nc(N)c1-c1ccc(Cl)cc1 , can you help?
Response: 95.24

Prompt: Same thing, different compound: O=c1[nH]cc(F)c(=O)[nH]1
Response: 106.12

====

target: VEGFR2 (Homo sapiens); assay: Kinase activity test (ReactionBiology), % enzyme activity relative to DMSO; assay type: biochemical; set-up: purchased ReactionBiology; conditions: VEGFR2; 1 uM; Average; read-out: % Enzyme Activity (relative to DMSO controls), Average
Sequence (P35968 20-1356): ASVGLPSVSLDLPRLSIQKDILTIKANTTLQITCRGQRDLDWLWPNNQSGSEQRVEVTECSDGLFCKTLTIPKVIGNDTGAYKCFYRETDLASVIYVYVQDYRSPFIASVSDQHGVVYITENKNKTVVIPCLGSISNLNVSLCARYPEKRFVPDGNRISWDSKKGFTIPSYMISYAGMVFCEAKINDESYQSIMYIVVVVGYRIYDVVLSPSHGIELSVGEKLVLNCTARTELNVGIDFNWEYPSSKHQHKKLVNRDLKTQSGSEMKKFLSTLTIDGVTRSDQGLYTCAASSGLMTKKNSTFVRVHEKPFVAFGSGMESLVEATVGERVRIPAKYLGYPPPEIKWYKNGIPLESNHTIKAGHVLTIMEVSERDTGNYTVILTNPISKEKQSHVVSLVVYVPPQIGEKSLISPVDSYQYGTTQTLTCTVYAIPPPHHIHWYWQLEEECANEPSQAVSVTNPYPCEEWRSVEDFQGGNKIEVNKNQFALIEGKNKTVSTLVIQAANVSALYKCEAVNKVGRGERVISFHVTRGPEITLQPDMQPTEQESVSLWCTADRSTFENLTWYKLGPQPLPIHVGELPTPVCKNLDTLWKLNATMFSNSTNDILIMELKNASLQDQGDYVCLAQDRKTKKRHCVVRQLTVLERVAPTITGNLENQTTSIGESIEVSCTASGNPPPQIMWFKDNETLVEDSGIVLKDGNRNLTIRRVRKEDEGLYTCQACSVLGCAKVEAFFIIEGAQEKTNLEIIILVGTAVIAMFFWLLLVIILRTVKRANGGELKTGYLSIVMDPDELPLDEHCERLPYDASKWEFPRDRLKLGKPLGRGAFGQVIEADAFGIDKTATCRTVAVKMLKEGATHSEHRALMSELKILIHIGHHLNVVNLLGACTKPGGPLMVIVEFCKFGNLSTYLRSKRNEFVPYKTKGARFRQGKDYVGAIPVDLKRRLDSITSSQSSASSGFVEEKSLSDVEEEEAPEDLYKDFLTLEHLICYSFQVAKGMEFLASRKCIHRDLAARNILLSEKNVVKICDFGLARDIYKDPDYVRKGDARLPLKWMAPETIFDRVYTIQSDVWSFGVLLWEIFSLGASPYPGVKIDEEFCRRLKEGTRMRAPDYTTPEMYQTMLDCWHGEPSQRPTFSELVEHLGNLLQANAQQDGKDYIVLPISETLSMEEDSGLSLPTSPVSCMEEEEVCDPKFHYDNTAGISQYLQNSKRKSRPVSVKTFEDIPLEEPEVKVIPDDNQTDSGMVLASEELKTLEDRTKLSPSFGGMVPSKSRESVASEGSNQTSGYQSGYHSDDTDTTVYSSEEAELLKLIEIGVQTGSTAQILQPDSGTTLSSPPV
endpoint: remaining activity at 1 µM (%)
# value in %; strip the unit string

compound	systemTested	unitAnnotation	remaining activity at 1 µM
N[C@@H](Cc1cc(I)c(Oc2cc(I)c(O)c(I)c2)c(I)c1)C(=O)O [Thyroxine, reference compound]	VEGFR2 (Homo sapiens)	%	104

Prompt: Looking for the measured remaining activity at 1 µM of CS(=O)(=O)c1ccc(C(=O)Nc2ccc(Cl)c(-c3ccccn3)c2)c(Cl)c1 , can you help?
Response: 103

Prompt: Same thing, different compound: C=CC(=O)N1CCC[C@@H](n2nc(-c3ccc(Oc4ccccc4)cc3)c3c(N)ncnc32)C1 [Ibrutinib, reference compound]
Response: 19.5

Prompt: Same thing, different compound: Cc1cccc(C)c1OCC(=O)N[C@@H](Cc1ccccc1)[C@@H](O)C[C@H](Cc1ccccc1)NC(=O)[C@H](C(C)C)N1CCCNC1=O [Lopinavir, reference compound]
Response: 104

Prompt: Same thing, different compound: CC(C)c1nc(CN(C)C(=O)N[C@H](C(=O)N[C@@H](Cc2ccccc2)C[C@H](O)[C@H](Cc2ccccc2)NC(=O)OCc2cncs2)C(C)C)cs1 [Ritonavir, reference compound]
Response: 111

Prompt: Same thing, different compound: CC(=O)O[C@H]1C[C@@]2(C)[C@@H](C[C@@H](O)[C@H]3[C@@]4(C)CC[C@@H](O)[C@@H](C)[C@@H]4CC[C@@]32C)/C1=C(\CCC=C(C)C)C(=O)O
Response: 109

Prompt: Same thing, different compound: Nc1ncnc2c1ncn2[C@@H]1O[C@H](CO)[C@@H](O)[C@H]1O [Adenosine, reference compound]
Response: 111

====

biological target: CK1d (Homo sapiens, UniProt P48730); construct: purchased ReactionBiology; experiment: Kinase activity test (ReactionBiology), % enzyme activity relative to DMSO; format: biochemical; conditions: CK1d; 10 uM; replicate Data 2
compounds and their reported % Enzyme Activity (relative to DMSO controls), Data 2
# value in %; strip the unit string

Example compounds with recorded % Enzyme Activity (relative to DMSO controls), Data 2:
compound	unitAnnotation	measuredValue
CCCCC[C@H](O)/C=C/[C@H]1[C@H](O)CC(=O)[C@@H]1CCCCCCC(=O)O	%	105.21
COc1ccc2c(c1)c(CC(=O)O)c(C)n2C(=O)c1ccc(Cl)cc1	%	92
CO[C@@]12[C@H](COC(N)=O)C3=C(C(=O)C(C)=C(N)C3=O)N1C[C@@H]1N[C@@H]12	%	107.8
C[C@H]1O[C@@H](O[C@H]2[C@@H](O)C[C@H](O[C@H]3[C@@H](O)C[C@H](O[C@H]4CC[C@@]5(C)[C@H](CC[C@@H]6[C@@H]5C[C@@H](O)[C@]5(C)[C@@H](C7=CC(=O)OC7)CC[C@]65O)C4)O[C@@H]3C)O[C@@H]2C)C[C@H](O)[C@@H]1O	%	99.09
CC1=Nc2ccc(Cl)cc2S(=O)(=O)N1 [Diazoxide]	%	97.73
O=c1[nH]cc(F)c(=O)[nH]1	%	101.8

Field: next compound
Prompt: Looking for the measured % Enzyme Activity (relative to DMSO controls), Data 2 of CN[C@H]1CC[C@@H](c2ccc(Cl)c(Cl)c2)c2ccccc21 , can you help?
Response: 220.55

====

biological target: EPHB4 (Homo sapiens, UniProt P54760); construct: purchased ReactionBiology; test: Kinase activity test (ReactionBiology), % enzyme activity relative to DMSO; type: biochemical; details: EPHB4; 10 uM; replicate Data 1;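 as to % Enzyme Activity (relative to DMSO controls), Data 1: EPHB4 was one of ten selected kinases in the screening panel, with enzyme activity expressed as a percentage of DMSO controls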
compounds and their reported % Enzyme Activity (relative to DMSO controls), Data 1
# value in %; strip the unit string

Prompt: Looking for the measured % Enzyme Activity (relative to DMSO controls), Data 1 of O=C1c2cccc3c2[C@H](CCC3)CN1[C@@H]1CN2CCC1CC2 , can you help?
Response: 86.49

Prompt: Same thing, different compound: C[C@H]1O[C@@H](O[C@H]2[C@@H](O)C[C@H](O[C@H]3[C@@H](O)C[C@H](O[C@H]4CC[C@@]5(C)[C@H](CC[C@@H]6[C@@H]5C[C@@H](O)[C@]5(C)[C@@H](C7=CC(=O)OC7)CC[C@]65O)C4)O[C@@H]3C)O[C@@H]2C)C[C@H](O)[C@@H]1O
Response: 91.71

Prompt: Same thing, different compound: CC(=O)Nc1ccc(O)cc1
Response: 99.39

====

target: CK1d (Homo sapiens); construct: purchased ReactionBiology; assay: Kinase activity test (ReactionBiology), % enzyme activity relative to DMSO; assay type: biochemical; details: CK1d; 10 uM; replicate Data 1
endpoint: % Enzyme Activity (relative to DMSO controls), Data 1 (%)
# value in %; strip the unit string

Example molecules with recorded % Enzyme Activity (relative to DMSO controls), Data 1:
> print(dat)
                                   molecule         systemtested  measuredvalue
1  CN1CC(=O)N2[C@H](c3ccc4c(c3)OCO4)c3[nH]c4ccccc4c3C[C@@H]2C1=O  CK1d (Homo sapiens)         107.23
2  COc1ccc2c(c1)c(CC(=O)O)c(C)n2C(=O)c1ccc(Cl)cc1  CK1d (Homo sapiens)          98.78
3  CCC1=C(C)CN(C(=O)NCCc2ccc(S(=O)(=O)NC(=O)N[C@H]3CC[C@H](C)CC3)cc2)C1=O [Glimepiride]  CK1d (Homo sapiens)          92.55

Prompt: Looking for the measured % Enzyme Activity (relative to DMSO controls), Data 1 of CCCCNc1ccc(C(=O)OCCN(C)C)cc1 , can you help?
Response: 119.29

====

compounds and their reported remaining activity at 10 µM
Target: EPHB4 (Homo sapiens, UniProt P54760)
Construct: purchased ReactionBiology
Sequence (P54760 16-987): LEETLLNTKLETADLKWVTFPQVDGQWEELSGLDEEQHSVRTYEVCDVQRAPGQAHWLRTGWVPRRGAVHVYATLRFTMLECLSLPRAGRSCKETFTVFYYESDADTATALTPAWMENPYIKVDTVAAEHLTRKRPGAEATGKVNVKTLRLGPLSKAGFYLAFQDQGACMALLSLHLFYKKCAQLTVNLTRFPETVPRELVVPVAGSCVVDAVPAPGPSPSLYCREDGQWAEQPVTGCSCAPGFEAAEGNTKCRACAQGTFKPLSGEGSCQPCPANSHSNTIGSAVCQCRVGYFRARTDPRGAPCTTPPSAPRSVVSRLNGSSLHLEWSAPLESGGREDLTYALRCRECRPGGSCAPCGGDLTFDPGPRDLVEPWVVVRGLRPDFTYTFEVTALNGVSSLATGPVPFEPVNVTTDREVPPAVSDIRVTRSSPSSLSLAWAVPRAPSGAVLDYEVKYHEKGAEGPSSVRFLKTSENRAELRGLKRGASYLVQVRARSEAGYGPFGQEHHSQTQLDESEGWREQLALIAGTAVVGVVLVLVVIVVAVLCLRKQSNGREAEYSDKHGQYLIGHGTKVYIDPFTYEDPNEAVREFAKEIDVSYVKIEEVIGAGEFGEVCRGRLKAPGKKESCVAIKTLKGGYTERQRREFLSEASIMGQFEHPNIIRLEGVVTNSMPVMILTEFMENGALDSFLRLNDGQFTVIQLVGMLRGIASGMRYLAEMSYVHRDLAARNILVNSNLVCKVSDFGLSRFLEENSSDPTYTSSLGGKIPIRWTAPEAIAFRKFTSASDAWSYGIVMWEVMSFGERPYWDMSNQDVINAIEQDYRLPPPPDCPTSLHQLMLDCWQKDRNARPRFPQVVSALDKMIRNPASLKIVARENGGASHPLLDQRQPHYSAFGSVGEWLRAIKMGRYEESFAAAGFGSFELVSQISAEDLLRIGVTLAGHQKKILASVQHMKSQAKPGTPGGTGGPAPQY
Assay: Kinase activity test (ReactionBiology), % enzyme activity relative to DMSO;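 also: VEGFR2 was one member of a ten-kinase screening panel testing marketed FDA-approved drugs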
Format: biochemical
Conditions: EPHB4; 10 uM; replicate Data 2; read-out: % Enzyme Activity (relative to DMSO controls), Data 2
# value in %; strip the unit string

Example compounds with recorded remaining activity at 10 µM:
compound	systemTested	measuredValue
CC(=O)O[C@H]1C[C@@]2(C)[C@@H](C[C@@H](O)[C@H]3[C@@]4(C)CC[C@@H](O)[C@@H](C)[C@@H]4CC[C@@]32C)/C1=C(\CCC=C(C)C)C(=O)O	EPHB4 (Homo sapiens, UniProt P54760)	89.3
O=C(O)c1ccccc1O	EPHB4 (Homo sapiens, UniProt P54760)	93.8
Nc1ncnc2c1ncn2[C@@H]1O[C@H](CO)[C@@H](O)[C@H]1O [Adenosine, reference compound]	EPHB4 (Homo sapiens, UniProt P54760)	86.8
NCCCCCC(=O)O	EPHB4 (Homo sapiens, UniProt P54760)	94.7
Oc1cc(Cl)ccc1Oc1ccc(Cl)cc1Cl [Triclosan, reference compound]	EPHB4 (Homo sapiens, UniProt P54760)	97.4
C[C@]12CC[C@@H]3c4ccc(O)cc4CC[C@H]3[C@@H]1CC[C@@H]2O [Estradiol, reference compound]	EPHB4 (Homo sapiens, UniProt P54760)	92.5
NC(=O)c1cccnc1 [Niacinamide, reference compound]	EPHB4 (Homo sapiens, UniProt P54760)	71.1
Cc1cccc(C)c1OCC(=O)N[C@@H](Cc1ccccc1)[C@@H](O)C[C@H](Cc1ccccc1)NC(=O)[C@H](C(C)C)N1CCCNC1=O [Lopinavir, reference compound]	EPHB4 (Homo sapiens, UniProt P54760)	85.7

Field: next compound
Prompt: Looking for the measured remaining activity at 10 µM of CC(C)c1nc(CN(C)C(=O)N[C@H](C(=O)N[C@@H](Cc2ccccc2)C[C@H](O)[C@H](Cc2ccccc2)NC(=O)OCc2cncs2)C(C)C)cs1 [Ritonavir, reference compound] , can you help?
Response: 93.1
